- targetOrSystem: M. fascicularis KLB and human FGFR1c co-expressed on HEK293/MfKLB/hFGFR1c/SRE-Luc cells (M. fascicularis; human, UniProt A0A2K5WB58 1-1044)
- Sequence (chain, as listed by the source, chain 1 of 2): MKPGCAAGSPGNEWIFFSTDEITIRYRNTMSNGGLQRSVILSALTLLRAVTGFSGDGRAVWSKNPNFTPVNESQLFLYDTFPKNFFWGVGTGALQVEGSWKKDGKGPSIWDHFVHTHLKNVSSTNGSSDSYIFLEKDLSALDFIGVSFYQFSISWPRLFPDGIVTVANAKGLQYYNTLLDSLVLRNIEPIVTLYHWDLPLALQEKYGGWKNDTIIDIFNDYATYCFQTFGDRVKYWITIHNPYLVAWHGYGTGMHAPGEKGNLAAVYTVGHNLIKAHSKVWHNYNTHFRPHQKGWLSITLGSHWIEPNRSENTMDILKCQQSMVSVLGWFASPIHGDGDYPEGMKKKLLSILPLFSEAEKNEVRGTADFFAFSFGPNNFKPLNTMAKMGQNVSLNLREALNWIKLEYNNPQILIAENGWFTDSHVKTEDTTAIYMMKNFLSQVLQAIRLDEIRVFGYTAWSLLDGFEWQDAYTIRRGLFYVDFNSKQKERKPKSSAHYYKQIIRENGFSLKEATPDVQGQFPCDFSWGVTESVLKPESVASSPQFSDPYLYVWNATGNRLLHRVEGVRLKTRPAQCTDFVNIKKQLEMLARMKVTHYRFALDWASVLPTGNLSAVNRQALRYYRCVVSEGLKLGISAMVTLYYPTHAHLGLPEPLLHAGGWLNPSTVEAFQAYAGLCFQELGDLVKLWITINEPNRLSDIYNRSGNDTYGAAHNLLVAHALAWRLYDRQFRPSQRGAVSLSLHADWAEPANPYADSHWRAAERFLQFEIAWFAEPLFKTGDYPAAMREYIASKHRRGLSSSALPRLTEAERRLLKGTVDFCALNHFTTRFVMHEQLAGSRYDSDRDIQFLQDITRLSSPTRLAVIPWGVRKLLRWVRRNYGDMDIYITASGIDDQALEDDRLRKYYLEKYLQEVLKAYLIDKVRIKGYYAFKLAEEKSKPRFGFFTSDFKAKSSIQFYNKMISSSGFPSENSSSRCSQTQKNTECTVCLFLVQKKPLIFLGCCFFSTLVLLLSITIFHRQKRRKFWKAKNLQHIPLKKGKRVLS
- Sequence (chain, as listed by the source, chain 2 of 2): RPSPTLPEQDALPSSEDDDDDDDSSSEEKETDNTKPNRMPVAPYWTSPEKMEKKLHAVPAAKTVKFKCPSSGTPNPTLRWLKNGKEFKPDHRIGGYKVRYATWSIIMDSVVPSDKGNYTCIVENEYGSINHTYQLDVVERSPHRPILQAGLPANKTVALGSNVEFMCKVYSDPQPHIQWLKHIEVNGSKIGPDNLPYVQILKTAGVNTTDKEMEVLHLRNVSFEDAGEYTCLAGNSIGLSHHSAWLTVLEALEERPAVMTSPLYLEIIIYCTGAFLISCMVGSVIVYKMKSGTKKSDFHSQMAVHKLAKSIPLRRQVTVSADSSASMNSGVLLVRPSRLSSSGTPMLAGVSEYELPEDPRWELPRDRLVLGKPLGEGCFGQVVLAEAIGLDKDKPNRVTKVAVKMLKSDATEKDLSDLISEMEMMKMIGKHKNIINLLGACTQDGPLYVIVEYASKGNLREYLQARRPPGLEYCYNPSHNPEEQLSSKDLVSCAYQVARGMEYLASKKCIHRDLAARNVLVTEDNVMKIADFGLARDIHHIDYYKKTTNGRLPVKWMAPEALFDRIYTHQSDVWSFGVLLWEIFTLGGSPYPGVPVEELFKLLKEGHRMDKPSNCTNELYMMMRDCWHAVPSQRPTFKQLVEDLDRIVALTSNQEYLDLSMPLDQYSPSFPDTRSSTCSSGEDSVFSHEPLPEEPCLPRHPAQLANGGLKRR
- measurementProtocol: cell-based or functional assay
outcomeMeasure: Maximum Inhibition (%) of 10 nM mfFGF21

INSERT INTO measurements (binder, outcomemeasure, quantitativeresult) VALUES
  ('H4H8856P (antibody, V domains shown, human IgG4 Fc (H4H prefix)) VH: QVQLQESGPGLVKPSETLSLTCTVSGGSISSYYWSWIRQPPGKGLEWIAYIYYSGITKYNPSLKSRVTISADTSKNQFSLKLSSVTAADTAVYYCARHGIFGVMEYFQRWGQGTLVTVSS VL: DIQMTQSPSSLSASIGDRVTITCQASQDISNFLNWYQQKPGKAPTLLIYDVSNMETGVPSRFSGSGYGTDFTLTISSLKPEDIATYYCQQYDNIPLTFGGGTKVEIK', 'Maximum Inhibition (%) of 10 nM mfFGF21', 91),
  ('H2bM8833N (antibody, V domains shown, mouse IgG2 Fc (H2bM prefix)) VH: QVQLVESGGGVVQPGRSLRLSCAASGFTFSRYGIHWVRQAPGKGLEWVAVIWYDGSNKYYADSLKGRFTISRDNSKNTLYLQMNSLRAEDTAVYYCARDQGNYIDYWGQGTLVTVSS VL: AIQMTQSPSSLSASVGDRVTITCRTSQGIRNDLGWYQQKPGKVPKLLIYAASSLQSGVPSRFSGSGSGTDFTLTISSLQPEDFATYYCLQDYNYPFTFGPGTKVDIK', 'Maximum Inhibition (%) of 10 nM mfFGF21', 16),
  ('H1H8898P (antibody, V domains shown, H1H Fc prefix (human Fc)) VH: QVQLVESGGGLVKPGGSLRLSCAASGFIFSDYYMSWIRQAPGKGLDWISYISPSGSTIYYADSVKGRFTISRDNAKNSLYLQMNSLRADDTAVYYCARTGIQLWSVYFDYWGQGTLVTVSS VL: EIVMTQSPATLSVSPGERATLSCRASQSVGSNLAWYQQKPGQAPRLLIYGASTRANGIPARFSGSGSGTEFTLTISGLQSEDFAVYYCQQYNNWPTFGQGTKLEIK', 'Maximum Inhibition (%) of 10 nM mfFGF21', 97);

Every entry's value here was drawn from patent US20170174769A1.
